// provenance: the Deep4Chem optical property database

experiment: solvent given as SMILES; details: in C1CCCCC1
reported.property: fluorescence lifetime (ns)
Field format: number, assumed ns, no unit text.

[in] // returns reported fluorescence lifetime for input Cc1ccc(C2=C3C=CC(c4ccccc4)=[N+]3[B-](F)(F)n3c2ccc3-c2ccccc2)cc1
[out] 1.56

[in] F[B-]1(F)n2cccc2C=C2C=CC=[N+]21 , same question.
[out] 6.47

[in] CN(C)c1ccc2nc(-c3ccc(C=C(C#N)C#N)cc3)sc2c1 , same question.
[out] 3.1

[in] C=Cc1cc(OC)cc(OC)c1 , same question.
[out] 3.8

[in] CCN(CC)c1ccc2c(C)cc(=O)oc2c1 , same question.
[out] 2.8

[in] CCCCC#Cc1cccc2cc(CCCC)c3cc(-c4cc[b-]5c(c4)c(CCCC)cc4cccc(C#CCCCC)[n+]54)cc[b-]3[n+]12 , same question.
[out] 4

[in] CN(C)c1ccc(-c2ccc(-c3nc(C#N)c(C#N)n3C)cc2)cc1 , same question.
[out] 1

[in] Nc1cc(N)cc(-c2nc3ccccc3s2)c1 , same question.
[out] 4.63

[in] COC(=O)c1ccc(C2=C3C=CC(C)=[N+]3[B-](F)(F)n3c(C)ccc32)cc1 , same question.
[out] 0.54

[in] CN(C)c1ccc2nc(/C=C/c3ccccc3)c(=O)oc2c1 , same question.
[out] 2.82

[in] COc1ccc2c(c1)C(=O)c1ccccc1-2 , same question.
[out] 9.9

[in] O=S1(=O)c2ccccc2-c2cc(-c3c4ccccc4cc4ccccc34)ccc21 , same question.
[out] 3.3

[in] c1ccc(N2c3ccc4ccccc4c3-c3c4ccccc4nc[n+]3[B-]2(c2ccccc2)c2ccccc2)cc1 , same question.
[out] 3.43

[in] CCCCCCCCCCCCCCCCOc1cc(C#Cc2ccc3ccccc3c2)c(OCCCCCCCCCCCCCCCC)cc1C#Cc1ccc(C=C(C#N)C#N)cc1 , same question.
[out] 1.92

[in] CN(C)c1ccc(/C=C/C=C2\CC/C(=C\C=C\c3ccc(N(C)C)cc3)C2=O)cc1 , same question.
[out] 0.48

[in] Cc1ccc(C2=C3C=CC(Cl)=[N+]3[B-](F)(F)n3c(Cl)ccc32)cc1 , same question.
[out] 2.1

[in] c1ccc2c(c1)[nH]c1cccnc12 , same question.
[out] 4.6

[in] Cc1ccc(C2=C3C=C(I)C=[N+]3[B-](F)(F)n3cc(I)cc32)cc1 , same question.
[out] 0.117

[in] c1ccc(-c2cc3cccc[n+]3[b-]3c(-c4cccc5[b-]4[n+]4ccccc4cc5-c4ccccc4)cccc32)cc1 , same question.
[out] 4.5

[in] CCC1=C(C)C2=C(C)c3c(C)c(CC)c(C)n3[B-](F)(F)[N+]2=C1C , same question.
[out] 5.6

[in] Nc1ccc2c(c1)C(=O)N(C13C[C@H]4C[C@@H](C1)C[C@@H](C3)C4)C2=O , same question.
[out] 10.7

====

assay: solvent given as SMILES; conditions: in CC#N
reported.property: fluorescence lifetime (ns)
Field format: number, assumed ns, no unit text.

[in] // returns reported fluorescence lifetime for input COc1cnc(-c2cc[n+](C3=C(F)C(F)(F)C(F)(F)[C-]3F)cc2)s1
[out] 2.3

[in] COc1cc2cc(/C=C/c3ccc(/C=C/c4ccc(/C=C(\C#N)C(=O)O)cc4)cc3)c(=O)oc2cc1OC , same question.
[out] 2.3

[in] CN(c1ccccc1)c1ccc(/C=C/c2ccccc2)cc1 , same question.
[out] 1.86

[in] C(=C\N1CCCC1)/c1nc2ccccc2nc1-c1ccccc1 , same question.
[out] 5.28

[in] N#Cc1coc2ccccc2c1=O , same question.
[out] 2.17

[in] NNC(=O)NNN1C(=O)c2cc(S(=O)(=O)[O-])cc3c(N)c(S(=O)(=O)[O-])cc(c23)C1=O , same question.
[out] 10.7

[in] N#Cc1cccc2cc[nH]c12 , same question.
[out] 8

[in] CC(=O)[B-]1(C(C)=O)OC(c2ccccc2)=CC(c2ccccc2)=[O+]1 , same question.
[out] 1.5

[in] Cc1ccc(C)n1-c1ccccc1 , same question.
[out] 5

[in] Nc1cc(N)cc(-c2nc3ccccc3s2)c1 , same question.
[out] 4.14

[in] Cc1ccc(-c2ccc(/C=C/c3ccc(Cl)cc3)cn2)nc1 , same question.
[out] 1.01

[in] Cc1ccc(-c2cc(-c3ccccc3)c(C#N)c(=S)[nH]2)cc1 , same question.
[out] 4.92

[in] C=Cc1cc(OC)cc(OC)c1 , same question.
[out] 6.9

[in] CCCCCCCCN1c2ccc(C#Cc3ccc(C(F)(F)F)cc3)cc2Sc2cc(C=O)ccc21 , same question.
[out] 6.52

[in] CSc1sc(C(C)=O)c2nn[nH]c(=O)c12 , same question.
[out] 0.75

[in] Nc1nc2ccc([N+](=O)[O-])cc2s1 , same question.
[out] 4.11

[in] COC(=O)c1ccccc1-c1c2ccc(=[NH2+])cc-2oc2cc(N)ccc12 , same question.
[out] 4.1

[in] Cc1cccc2c1nc1c(=O)n(C)c(=O)nc-1n2C , same question.
[out] 1.8

[in] COC(=O)C[C@H](Cc1c[nH]c2ccccc12)NC(=O)[C@H](CC(=O)N[C@@H](CC1=CCc2ccccc21)C(=O)OC)NC(=O)[C@H](Cc1c[nH]c2ccccc12)NC(=O)OC(C)(C)C , same question.
[out] 2.67

[in] CN(C)CCCN1c2ccccc2CCc2ccc(Cl)cc21 , same question.
[out] 0.22

[in] Cc1cc(N(C)C)cc(C)c1/C=C/C=C/c1ccc(C#N)cc1 , same question.
[out] 0.61

[in] COc1ccc(C2=C3C(C)=CC(C)=[N+]3[B-](F)(F)n3c(/C=C/c4ccc(N(C)C)cc4)cc(C)c32)cc1 , same question.
[out] 1.2

[in] c1csc(-c2ccc(-c3cccs3)s2)c1 , same question.
[out] 0.2
